Tested on: HL-60
Assay text: NCI tumour cell line growth inhibition, 48 h
Activity calls are given as the source filed them. Rule as the data show it: active = GI50 up to about 1.1 µM and inactive = higher. Starred links: 1 amine or outer side, 2 acyl side, 3 side chain; linkers in the order of their positions; H or OH if unused. Non-standard residues stand in square brackets, D forms with d. Residues, ends and D or L forms follow the SMILES beside them. *: point of attachment. X34 = CC(=O)N(C)SCC(N[*:1])C(=O)[*:2]; Cbz = O=C(OCc1ccccc1)*; Bn = c1ccc(C*)cc1; For = O=C*
Outcomes: T (active), F (inactive)

Compound: NC(=O)Nc1cc(O)ccc1/N=N/c1ccc(S(=O)(=O)Nc2ccccn2)cc1
Assayed system: HL-60
Class assignment: F

Compound: CCCCCC(=O)OC[n+]1ccc(-c2c(COC(=O)NC(C)C)c(COC(=O)NC(C)C)c3n2CCC3)cc1
Assayed system: HL-60
Class assignment: F

Compound: CC(=O)N(C)SCC(NC(=O)C(Cc1ccccc1)NC(=O)OCc1ccccc1)C(=O)NC(Cc1ccccc1)C(=O)NC(Cc1cn(C=O)c2ccccc12)C(=O)NC(CCCCNC(=O)OCc1ccccc1)C(=O)NC(C(=O)NC(CSN(C)C(C)=O)C(=O)NC(C(N)=O)C(C)OCc1ccccc1)C(C)OCc1ccccc1 (configuration not stated) (Cbz-F[X34]FW(For)K(Cbz)T(Bn)[X34]T(Bn)-NH2; configuration not given here)
Assayed system: HL-60
Class assignment: F

Compound: O=Cc1ccccc1COC(=O)c1cc(C(=O)OCc2ccccc2C=O)c(C(=O)OCc2ccccc2C=O)cc1C(=O)OCc1ccccc1C=O
Assayed system: HL-60
Class assignment: F

Compound: COC(=O)C(CCC1CC(OC)N(C(=O)OCc2ccccc2)C1)/N=C/c1ccccc1 (configuration not stated)
Assayed system: HL-60
Class assignment: F

Compound: Clc1nc(Cl)c(Cl)c(Cl)n1
Assayed system: HL-60
Class assignment: F

Compound: COc1cc(NC(C)=O)ccc1C(=O)NN1C(=O)/C(=C/c2ccco2)N=C1c1ccccc1
Assayed system: HL-60
Class assignment: F

Compound: CC(=C/C=C/C=C(C)\C=C\C=C(\C)C(=O)O)/C=C/C=C(/C)C(=O)O
Assayed system: HL-60
Class assignment: F

Compound: CC(C)c1nc2cc(C(F)(F)F)ccc2[nH]c1=O
Assayed system: HL-60
Class assignment: F

Compound: COc1cc2c(cc1[N+](=O)[O-])C(=O)C(Br)(Br)CCC2
Assayed system: HL-60
Class assignment: F

Compound: O=C(O)c1cccc2cccc(-c3c4ccc(=O)cc-4oc4cc(O)ccc34)c12
Assayed system: HL-60
Class assignment: F

Compound: COc1c(C)cc(O)cc1C=O
Assayed system: HL-60
Class assignment: F

Compound: CC[C@H](CC[C@@H](C)[C@H]1CC[C@H]2[C@@H]3CC=C4C[C@@H](O)CC[C@]4(C)[C@H]3CC[C@]12C)C(C)C
Assayed system: HL-60
Class assignment: F

Compound: CC(=O)C1=C(C)N(c2ccccc2)C2(O)C=CC(O)=C3C(=O)c4ccccc4C(=O)C312 (configuration not stated)
Assayed system: HL-60
Class assignment: F

Compound: Cc1cn(C2OC(C)(CO)C(O)C2O)c(=O)[nH]c1=O (configuration not stated)
Assayed system: HL-60
Class assignment: F

Compound: O=C(/C=C/c1ccc(/C=C/C(=O)c2ccc(O)cc2)cc1)c1ccc(O)cc1
Assayed system: HL-60
Class assignment: F

Compound: O=c1c2c(c1=O)-c1ccccc1CN2
Assayed system: HL-60
Class assignment: F

Compound: COC(=O)C1(Cc2ccc3c(c2)CCC3)Cc2ccccc2C1
Assayed system: HL-60
Class assignment: F

Compound: O=[N+]([O-])c1cccc(C2=NOC(C3CCCCC3)C2)c1 (configuration not stated)
Assayed system: HL-60
Class assignment: F

Compound: CN1C(=O)C23CCCC2CC1(c1ccccc1)S3 (configuration not stated)
Assayed system: HL-60
Class assignment: F

Compound: COC(=O)c1c2c(cc3c1CC1(Cc4cc5c(cc4C1=O)CCC5)C3)CCC2 (configuration not stated)
Assayed system: HL-60
Class assignment: F

Compound: COC(=O)c1cc(C)ccc1/C=C1\Cc2cccc(C)c2C1=O
Assayed system: HL-60
Class assignment: F

Compound: Cc1ccc(NC(=O)CC2C(=O)Nc3ccccc3[S+]2[O-])cc1C (configuration not stated)
Assayed system: HL-60
Class assignment: F

Compound: C=C(NC(=O)C(=C)NC(=O)c1csc(C2=NC3c4csc(n4)C4NC(=O)c5csc(n5)C(C(C)(O)C(C)O)NC(=O)C5CSC(=N5)/C(=C/C)NC(=O)C(C(C)O)NC(=O)c5csc(n5)C3(CC2)NC(=O)C(C)NC(=O)C(=C)NC(=O)C(C)NC(=O)C(C(C)CC)NC2C=Cc3c(C(C)O)cc(nc3C2O)C(=O)OC4C)n1)C(N)=O (configuration not stated)
Assayed system: HL-60
Class assignment: F

Compound: CCCCCCCCCCCCCC(=O)N(CCCCCCCCC)CC(O)C(O)C(OC1OC(CO)C(O)C(O)C1O)C(O)CO (configuration not stated)
Assayed system: HL-60
Class assignment: F

Compound: O=C(O)c1cc(CCc2cc(O)ccc2O)ccc1O
Assayed system: HL-60
Class assignment: F

Compound: N=C(N)C1CN(CCCCCCCCCCN2CC(C(=N)N)C(O)=NC2=O)C(=O)N=C1O (configuration not stated)
Assayed system: HL-60
Class assignment: F

Compound: CC(C)(C)OC(=O)NCC(c1c[nH]c2ccccc12)c1c[nH]c2ccccc12
Assayed system: HL-60
Class assignment: F

Compound: COC(=O)C1Cc2c(n(C)c3ccccc23)C(c2ccccc2)N1 (configuration not stated)
Assayed system: HL-60
Class assignment: F

Compound: C=CC1C(OC2OC(CO)C(O)C(O)C2O)OC=C(C(=O)OC)C1CC=O (configuration not stated)
Assayed system: HL-60
Class assignment: F

Compound: CC1c2[nH]c3ccccc3c2CCN1O (configuration not stated)
Assayed system: HL-60
Class assignment: F

Compound: C=CC(OCC)(OCC)OCC
Assayed system: HL-60
Class assignment: F

Compound: O=C(O)CC1NCc2cc3ccccc3nc21 (configuration not stated)
Assayed system: HL-60
Class assignment: F

Compound: O=C(OC1CCC(=C2SCCCS2)[C@H]1C1SCCCS1)c1ccccc1 (some centres not stated)
Assayed system: HL-60
Class assignment: F

Compound: C[C@H]1CC(=O)C2=CCCC3(SCCCS3)[C@@H]2[C@H]1CO
Assayed system: HL-60
Class assignment: F

Compound: CSCCC(N)C(=O)NCCNc1ccc(NCCNC(=O)C(N)CCSC)c2c1C(=O)c1ccccc1C2=O (configuration not stated)
Assayed system: HL-60
Class assignment: T

Compound: COc1ccc(C2S/C(=C\c3cccc(OC)c3)C(=O)N2NC(=O)Cc2ccccc2)cc1 (configuration not stated)
Assayed system: HL-60
Class assignment: F

* * *

Tested on: OVCAR-5
Assay text: NCI tumour cell line growth inhibition, 48 h
Activity calls are given as the source filed them. Cut-off read from the data, not from the text of the source: active = GI50 up to about 1.1 µM and inactive = higher.
Measured GI50, listed per entry.
Measured property: GI50

Molecule: COc1ccc(OC)c2c1C(=O)C(Cl)=C(Cl)C2=O
Measured: 15.7 µM (inactive)
//
Molecule: CN(C)c1nncc2[nH]nnc12
Measured: > 100 µM (inactive)
//
Molecule: CC(=O)c1ccc(O)c(CN(C2CCCCC2)C2CCCCC2)c1O
Measured: > 100 µM (inactive)
//
Molecule: O=[N+]([O-])c1ccc(NN/N=N/c2ccc(-c3nc4ccccc4s3)cc2)c([N+](=O)[O-])c1
Measured: 23.8 µM (inactive)
//
Molecule: CCCCCCCCOCC(COC(=O)CCCCCCC)OC(=O)CCCCCCC (stereo unspecified)
Measured: > 100 µM (inactive)
//
Molecule: COCN1C(=O)[C@@H]2CCCN2C(=O)c2cc(Cl)ccc21
Measured: > 100 µM (inactive)

* * *

Test system: MCF7
Assay text: NCI tumour cell line growth inhibition, 48 h
Calls of active or inactive are those of the source. Cut-off read from the data, not from the text of the source: active = GI50 up to about 1.1 µM and inactive = higher.
Measured property: GI50

Compound: NC(=S)N/N=C/c1ccc(OC(=O)COc2ccccc2Cl)cn1
Measured property: GI50
Measured: 10.5 µM (inactive)
--
Compound: CC1(C)OC2CN(C(=O)OCc3ccccc3)C(CO)C2O1 (stereo unspecified)
Measured property: GI50
Measured: > 100 µM (inactive)
--
Compound: Cc1cc2ccc(N)nc2nc1O
Measured property: GI50
Measured: > 100 µM (inactive)
--
Compound: CCCCN1C(=O)CC2[C@@H]3CCc4cc(OC)ccc4C3CC[C@]2(C)C1=O (stereo partly specified)
Measured property: GI50
Measured: > 10 µM (inactive)
--
Compound: NS(=O)(=O)c1ccc(NC(=S)N/C=C2\C(=O)Nc3ccccc3C2=O)cc1
Measured property: GI50
Measured: > 100 µM (inactive)
--
Compound: [N-]=[N+]=Nc1cc(=O)n2c3c(cccc13)CCC2
Measured property: GI50
Measured: > 100 µM (inactive)
--
Compound: Clc1nc(Cl)c(Cl)c(Cl)n1
Measured property: GI50
Measured: 15.8 µM (inactive)
--
Compound: CN1CCC/C1=C1/C(=O)N(c2ccccc2)N=C1c1ccc[nH]1
Measured property: GI50
Measured: > 100 µM (inactive)
--
Compound: COc1ccc(OC)c(CNc2ccc(O)c(C(=O)NCCc3ccc(F)cc3)c2)c1
Measured property: GI50
Measured: 10.8 µM (inactive)
--
Compound: Cc1cccc(-c2cccc(COCc3cccc(-c4cccc(CO)n4)n3)n2)n1
Measured property: GI50
Measured: 36.2 µM (inactive)
--
Compound: CCCC(=O)Nc1ccc2c(c1)CN1C(=O)c3ccccc3C1=N2
Measured property: GI50
Measured: > 100 µM (inactive)
